target: rat NR1/NR2B receptor (Rattus norvegicus (Rat), UniProt P35439+Q00960); assay: NR2B binding assay: inhibition of specific [3H]-Ifenprodil binding to the rat NR1/NR2B receptor; settings: rat brain membranes, Hill-plot 2-parameter-model
Sequence (Q00960 27-1482, other chains not shown): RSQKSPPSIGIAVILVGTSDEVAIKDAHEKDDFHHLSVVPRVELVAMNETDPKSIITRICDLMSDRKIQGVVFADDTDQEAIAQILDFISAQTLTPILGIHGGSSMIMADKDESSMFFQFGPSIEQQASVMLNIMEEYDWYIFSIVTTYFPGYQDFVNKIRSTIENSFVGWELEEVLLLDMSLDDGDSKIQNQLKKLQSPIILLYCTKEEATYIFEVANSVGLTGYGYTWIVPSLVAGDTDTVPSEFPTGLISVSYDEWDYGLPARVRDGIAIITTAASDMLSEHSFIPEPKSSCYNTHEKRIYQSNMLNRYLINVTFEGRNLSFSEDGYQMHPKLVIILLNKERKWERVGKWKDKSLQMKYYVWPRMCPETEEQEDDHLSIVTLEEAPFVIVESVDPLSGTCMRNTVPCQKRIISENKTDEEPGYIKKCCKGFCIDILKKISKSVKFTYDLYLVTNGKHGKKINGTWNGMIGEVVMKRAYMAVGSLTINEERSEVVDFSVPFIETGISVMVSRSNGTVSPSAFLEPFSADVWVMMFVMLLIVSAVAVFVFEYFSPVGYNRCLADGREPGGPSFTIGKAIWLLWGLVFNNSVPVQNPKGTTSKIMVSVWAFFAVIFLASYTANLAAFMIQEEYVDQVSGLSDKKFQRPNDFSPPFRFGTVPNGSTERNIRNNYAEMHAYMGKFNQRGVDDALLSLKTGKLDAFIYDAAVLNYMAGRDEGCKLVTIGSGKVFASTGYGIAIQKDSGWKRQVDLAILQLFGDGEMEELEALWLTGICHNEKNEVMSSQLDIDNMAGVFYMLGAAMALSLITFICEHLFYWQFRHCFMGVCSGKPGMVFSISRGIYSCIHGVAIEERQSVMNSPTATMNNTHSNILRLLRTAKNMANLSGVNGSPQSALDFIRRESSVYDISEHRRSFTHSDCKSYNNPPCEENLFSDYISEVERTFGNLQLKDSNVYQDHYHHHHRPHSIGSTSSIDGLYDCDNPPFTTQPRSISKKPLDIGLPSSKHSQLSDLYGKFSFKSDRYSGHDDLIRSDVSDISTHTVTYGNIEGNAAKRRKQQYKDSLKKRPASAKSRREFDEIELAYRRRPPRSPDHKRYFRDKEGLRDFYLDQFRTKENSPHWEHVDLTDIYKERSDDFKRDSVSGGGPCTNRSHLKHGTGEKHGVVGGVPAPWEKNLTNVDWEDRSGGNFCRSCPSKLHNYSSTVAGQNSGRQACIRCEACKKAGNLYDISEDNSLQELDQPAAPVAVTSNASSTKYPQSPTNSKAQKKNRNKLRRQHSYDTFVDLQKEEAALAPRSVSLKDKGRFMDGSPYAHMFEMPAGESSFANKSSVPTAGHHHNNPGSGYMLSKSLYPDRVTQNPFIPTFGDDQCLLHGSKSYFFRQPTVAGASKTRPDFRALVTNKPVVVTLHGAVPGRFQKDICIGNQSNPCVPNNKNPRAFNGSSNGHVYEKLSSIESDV
Values of IC50 strictly less than 90 nM map to Condition met, and values of at least 90 nM map to Condition not met.

> print(dat)
                                 smiles.repr        label.class
 1  CC(C)(C)c1nccn1Cc1cn(-c2ccc(Cl)c(Cl)c2)nn1  Condition not met
 2     CCCCc1nccn1Cc1cn(-c2ccc(F)c(Cl)c2)nn1      Condition met
 3      CCc1nccn1Cc1cn(-c2ccc(Cl)c(Cl)c2)nn1      Condition met
 4  Cc1nccn1Cc1cn(-c2ccc(F)c(C(C)(F)F)c2)nn1      Condition met
 5         Cc1nccn1Cc1cn(-c2ccc(Cl)cc2Cl)nn1  Condition not met
 6          COc1cc(F)ccc1-n1cc(Cn2ccnc2C)nn1  Condition not met
 7   Cc1nccn1Cc1cn(-c2cccc(S(C)(=O)=O)c2)nn1  Condition not met
 8      Cc1cc(-n2cc(Cn3ccnc3C(C)C)nn2)ccc1Cl      Condition met
 9      Fc1ccc(-n2cc(Cn3ccnc3C3CC3)nn2)cc1Cl      Condition met
10       Cc1ccc(-n2cc(Cn3ccnc3C3CC3)nn2)cc1F      Condition met
